Tested on: SF-539
assay: NCI tumour cell line growth inhibition, 48 h
Active and inactive are the calls of the source. No stated cut-off is given here; in the data, active = GI50 up to about 1.1 µM and inactive = higher.
Respond using exactly one of the listed classes: y = active, n = inactive

Please let me know the test result on file for C=C1C2CCC3(CCC4C5(C)CCCC4(C=[N+](CCO)C5)C3C2)C1O (stereo not given) .
n

Also check `CN(C)c1ccc(C=c2c3ccccc3n3c2cc(-c2ccc(Cl)cc2)[n+]3C)cc1`
y

Similarly, `O=C(Cc1nc2sc3c(c2c(=O)[nH]1)CCCC3)Nc1ccccc1` ?
n

Also need `Cc1cccc(C)c1NC(=O)Nc1ccc(S(N)(=O)=O)cc1` , thanks.
n

Continue with `COc1cc2cnc3c4cc(OC)c(OC(C)C)cc4ccc3c2cc1OC`
n

---

Assign GI50 to each entry below.
System: OVCAR-5
assay: NCI tumour cell line growth inhibition, 48 h
The source made the active and inactive calls. Cut-off read from the data, not from the text of the source: active = GI50 up to about 1.1 µM and inactive = higher.

Record request: GI50 value, item `OC1CSCCCSCCSCCCSC1`
> 100 µM (inactive)

Could you do the same for `O=C(c1ccc2ccccc2c1)N(Cc1cccnc1)C(=S)N(Cc1cccnc1)C(=O)c1ccc2ccccc2c1` , please?
55 µM (inactive)

Please answer likewise for `COc1ccccc1/C=N/N=C(\N)NO`
4.58 µM (inactive)

Another compound: `CCOC(=O)CNC(=O)NC12CC3CC(CC(C3)C1)C2`
432 µM (inactive)

Here is the next compound: CSCCC(NC(=O)OC(C)(C)C)C(=O)NCCNc1ccc(NCCNC(=O)C(CCSC)NC(=O)OC(C)(C)C)c2c1C(=O)c1ccccc1C2=O (stereo unspecified)
5.74 µM (inactive)

Another compound to look at: CCC(Oc1ccc(OC)c2ccccc(=O)c12)C(=O)O (stereo unspecified)
> 100 µM (inactive)

---

System: EKVX
assay: NCI tumour cell line growth inhibition, 48 h
Calls of active or inactive are those of the source. Cut-off read from the data, not from the text of the source: active = GI50 up to about 1.1 µM and inactive = higher.
measure: GI50

Give its GI50 value. Item: `C=C(Cl)Cc1c(O)c2c(c(O)c1CC(=C)Cl)C(=O)c1ccccc1C2=O`
> 100 µM (inactive)

What do you have for CC(C)(C)OC(=O)NCCCCC1NC(=O)[C@@H]2Cc3c([nH]c4ccccc34)C(C3CCCCC3)N2C1=O (stereo not given in full) ?
33.7 µM (inactive)

Proceed to `CN1C(=O)CC(=O)N1/C(=C/c1ccccc1)c1ccccc1`
> 100 µM (inactive)

Another molecule: CCC(Oc1ccc(OC)c2ccccc(=O)c12)C(=O)O (stereo not given)
> 100 µM (inactive)

Consider next the molecule CN(c1ccccc1)C(c1ccccc1)C(O)c1ccccc1 (stereo not given) in the same way.
25.1 µM (inactive)

Okay, and `COc1ccc(/C=C2\C[C@H]3[C@@H]4CCC5=C/C(=N/O)CC[C@]5(C)[C@H]4CC[C@]3(C)\C2=N\O)cc1OC` ?
3.36 µM (inactive)

// next record `CC(C)(C)OC(=O)[C@@H]1CCC(=S)N1Cc1ccccc1`
92 µM (inactive)

Cool, now `Cc1ccnc2nc(N)ccc12`
> 100 µM (inactive)

Next up: `FC(F)=C(c1ccc(-c2ccc(Cl)cc2)cc1)C(F)(F)F`
19.7 µM (inactive)

Next molecule: `COc1c2c(cc3c(CCc4ccccc4)cc(=O)oc13)CCC(C)(C)O2`
> 100 µM (inactive)

---

Tested on: MDA-MB-231
assay: NCI tumour cell line growth inhibition, 48 h
The source made the active and inactive calls. No stated cut-off is given here; in the data, active = GI50 up to about 1.1 µM and inactive = higher.
// allowed return values: label 1 for active, label 0 for inactive

Returns: the outcome recorded for C=C1C(=O)OC2/C=C(\CO)C(OC(C)=O)CC(O)/C(C)=C/C(OC(=O)C(C)CC)C12 (stereo not given) in this assay.
label 0

What do you get for CC(C)=CCOc1cc(NC(=S)c2ccoc2C)ccc1Cl [UC 781] ?
label 0

Record: `N=C(N)c1ccc(/N=N\c2c(O)ccc3c2[nH]c2ccccc23)cc1`
label 0

Same question, Brc1ccc(C2CC3(c4ccccc4)ON=C(c4ccccc4)N3c3ccccc3S2)cc1 (stereo not given) this time
label 0

# iterate: `CC1CCN(c2nnc(Cl)cc2C(=O)c2ccccc2)CC1`
label 0

Likewise for `COc1ccc(C(=O)Sc2c(-c3ccccc3)c(=O)n(-c3ccccc3)c(=S)n2-c2ccccc2)cc1` ?
label 0

Field entry: CC(=O)Oc1ccc(C(c2ccc(OC(C)=O)cc2)c2ccccn2)cc1 [BISACODYL]
label 0

Same question for `Cc1ccc2c(O)cc(-c3cccc4ccccc34)nc2n1` please.
label 1

Same lookup for `N=C(N)c1ccc2oc3ccc(C(=N)N)cc3c(=O)c2c1` , please.
label 0

Now consider `O=[N+]([O-])c1cccc2nc3ccccc3c(NCCCCNc3c4ccccc4nc4cccc([N+](=O)[O-])c34)c12` and answer again.
label 1
